Cited source for all entries: PubChem BioAssay (NCI)

Experiment: NCI Yeast Anticancer Drug Screen. Data for the cln2 rad14 strain (AID 165);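 further: 0% = growth equal to vehicle treated cultures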
Conditions: S. cerevisiae cln2 rad14 strain, at 5.0 µM (retest, dose inferred, filed as 0.5), hits give high values
The panel holds about 79,000 compounds, 15% with a hit somewhere; the sample as a whole holds those more often.
Readout Label: growth inhibition (%)
Quick reminder: number only, in %, skip the unit.

For reference, reported growth inhibition for CC(NC(=O)OCc1ccccc1)C(=O)NNc1ccccc1Cl (stereo unspecified) stands at 29

For reference, reported growth inhibition for COC(=O)c1ccccc1CC1Cc2cccc(C)c2C1=O (stereo unspecified) stands at -2

For reference, reported growth inhibition for `O=Cc1[nH]c(=S)[nH]c(=O)c1CCCc1ccccc1` stands at 17

For reference, reported growth inhibition for `COc1ccc(OC)c2c(=S)c3ccccc3[nH]c12` stands at -5

For reference, reported growth inhibition for `CC(=O)OCCc1ccc(CCc2ccccc2)cc1` stands at 4

For reference, reported growth inhibition for CC1/C=C/C=C/CC/C=C/C=C/C=C/C=C/C(OC2OC(C)C(O)C(N)C2O)CC2OC(CC(O)C(O)CCC(O)CC(O)CC(O)CC(=O)OC(C)C(C)C1O)CC(O)C2C(=O)O (stereo unspecified) stands at 93

For reference, reported growth inhibition for `O=C(Oc1cc(Cl)c(Cl)cc1Cl)c1ccco1` stands at 3

For reference, reported growth inhibition for `CCOC(=O)C(=Cc1ccccc1)C(=O)OCC` stands at 13

For reference, reported growth inhibition for CC(C)(C)C1=NN=C2c3ccccc3C(=O)C21 (stereo unspecified) stands at -12

For reference, reported growth inhibition for O=C(c1ccccc1)C(Br)CCCC(Br)C(=O)c1ccccc1 (stereo unspecified) stands at 15

For reference, reported growth inhibition for COc1ccc(C2c3cc4c(cc3OC(O)(CO)C2C(=O)O)OCO4)cc1 (stereo unspecified) (tested in a mixture with another compound) stands at -6
